These measurements were taken from paper PMC2241890.

# TARGET: HU alpha-beta heterodimer (Escherichia coli, UniProt P0ACF0;P0ACF4 1-90;1-90)
# Sequence (P0ACF0 whole entry, chain 1 of 2): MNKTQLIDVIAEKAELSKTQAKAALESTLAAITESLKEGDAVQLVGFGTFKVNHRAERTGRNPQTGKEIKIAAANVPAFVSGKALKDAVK
# Sequence (P0ACF4 whole entry, chain 2 of 2): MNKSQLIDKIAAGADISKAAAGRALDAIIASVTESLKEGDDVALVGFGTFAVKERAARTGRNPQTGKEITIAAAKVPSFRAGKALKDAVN
# TEST DESCRIPTION: EMSA
OBSERVED PROPERTY: Kd (nM)
Give the quantity in nM, number only.

-- ask // returns reported Kd for input AGTCTAGAGTGCAGTTGAGTCCTTGCTA (ssDNA) [ssDNA D-28]
-- reply 755
